Hello, the source for this data is patent US12427192B2, in case you need it.

# Assay system: human TLR7 (Homo sapiens, UniProt Q9NYK1)
# Construct: expresses full-length human TLR7 and secretory alkaline phosphatase (SEAP) reporter gene; host or cells: HEK293 (TLR7/NF-κB/SEAPorter)
# Sequence (Q9NYK1 27-1049): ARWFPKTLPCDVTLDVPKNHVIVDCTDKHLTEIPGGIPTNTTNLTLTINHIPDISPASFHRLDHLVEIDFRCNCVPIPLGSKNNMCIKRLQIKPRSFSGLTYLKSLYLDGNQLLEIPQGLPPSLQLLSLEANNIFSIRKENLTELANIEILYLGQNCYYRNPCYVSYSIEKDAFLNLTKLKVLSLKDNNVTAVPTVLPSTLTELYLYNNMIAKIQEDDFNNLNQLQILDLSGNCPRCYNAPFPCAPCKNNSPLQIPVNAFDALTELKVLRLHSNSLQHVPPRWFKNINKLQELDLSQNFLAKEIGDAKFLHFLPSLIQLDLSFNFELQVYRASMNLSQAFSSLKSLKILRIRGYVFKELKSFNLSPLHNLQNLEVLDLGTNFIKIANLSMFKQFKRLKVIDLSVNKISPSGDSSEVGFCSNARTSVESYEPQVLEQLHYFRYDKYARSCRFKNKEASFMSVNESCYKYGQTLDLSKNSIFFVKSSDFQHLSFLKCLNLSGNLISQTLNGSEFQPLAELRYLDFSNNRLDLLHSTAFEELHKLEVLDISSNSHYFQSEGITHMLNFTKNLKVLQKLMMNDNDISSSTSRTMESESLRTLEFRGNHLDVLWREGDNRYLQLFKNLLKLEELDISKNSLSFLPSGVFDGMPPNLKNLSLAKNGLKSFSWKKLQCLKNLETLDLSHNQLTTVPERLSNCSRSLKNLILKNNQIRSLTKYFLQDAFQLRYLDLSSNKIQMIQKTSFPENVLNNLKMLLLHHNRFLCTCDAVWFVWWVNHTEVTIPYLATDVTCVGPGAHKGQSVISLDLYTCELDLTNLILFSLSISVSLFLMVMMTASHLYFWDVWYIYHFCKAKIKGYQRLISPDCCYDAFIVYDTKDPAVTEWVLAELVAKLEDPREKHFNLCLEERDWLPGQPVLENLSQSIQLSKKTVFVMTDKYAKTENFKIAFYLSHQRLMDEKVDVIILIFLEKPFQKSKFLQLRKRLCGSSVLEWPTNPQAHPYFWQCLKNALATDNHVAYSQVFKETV
# Run description: Human TLR7 reporter gene assay (HEK-Blue hTLR7 cell line), Test 22
# Type: cell-based
# Applied conditions: method of Test 1
Assay metric: EC50 (nM)

[a] CCC[C@@H](CO)Nc1nc(N)nc(C)c1Cc1ccc(C(=O)NCCOCCOCCOCCOCCOCCOCCO)cc1OC [Example 5]
[b] CCCCCNc1nc(N)nc(C)c1Cc1ccc(COCCOCCOCCOCCOC)cc1OC [Example 7]
[c] CCC[C@@H](CO)Nc1nc(N)nc(C)c1Cc1ccc(C(=O)OCCOCCOCCOCCOC)cc1OC [Example 6]
Enquiry: Reorder the records above by EC50 so that values decrease. Please reply with the labels ordered as requested. Many thanks.
Return: a, c, b
